system: JCK; assay: qHTS profiling for inhibitors of Plasmodium falciparum proliferation (AID 504749); further: nearly all actives have a fitted effect of over 60% in size; conditions: P. falciparum in erythrocytes, SYBR Green DNA, 72 h; series mostly up to 28.7 µM
Results filed as inconclusive are left out. Activity calls are given as the source filed them. The call rests on the fitted dose curve; in most records, active means well fitted inhibition curve with a large enough effect; inconclusive means small, poorly fitted or top-dose-only effect; inactive means flat fitted curve, though single readings scatter.
Labels: True = active, False = inactive

INSERT INTO assay_data (molecule, class_name) VALUES
  ('COc1ccc([C@@H]2Sc3ccccc3N(CCN(C)C)C(=O)[C@@H]2OC(C)=O)cc1', 'True'),
  ('CCNC(=O)N1CCN(CCCC(c2ccc(F)cc2)c2ccc(F)cc2)CC1', 'True'),
  ('OC(CCN1CCCCC1)(c1ccccc1)C1CCCCC1 (stereo unspecified)', 'False'),
  ('CN(C)CCOC(=O)COc1ccc(Cl)cc1', 'False'),
  ('Cc1ccc(S(=O)(=O)NC(=O)NN2CCCCCC2)cc1', 'False'),
  ('CCOC(=O)c1cnc2c(cnn2CC)c1NN=C(C)C', 'False'),
  ('COc1ccc(CN(CCN(C)C)c2ccccn2)cc1', 'True'),
  ('CN(C)C/C=C(/c1ccc(Br)cc1)c1cccnc1', 'False'),
  ('Cc1nc2ccccn2c(=O)c1CCN1CCC(C(=O)c2ccc(F)cc2)CC1', 'False'),
  ('Nc1c2c(nc3ccccc13)CCCC2O (stereo unspecified)', 'False'),
  ('CN1CCN(CC(=O)N2c3ccccc3C(=O)Nc3cccnc32)CC1', 'False'),
  ('CCCCCN(CCCCC)C(=O)C(CCC(=O)O)NC(=O)c1ccc(Cl)c(Cl)c1 (stereo unspecified)', 'False'),
  ('O=C(O)CCCCCCCC(=O)O', 'False'),
  ('NS(=O)(=O)c1cc2c(cc1Cl)NC(C1CC3C=CC1C3)NS2(=O)=O (stereo unspecified)', 'False'),
  ('CCN1CCc2nc(N)oc2CC1', 'False'),
  ('CCO/C([O-])=N/c1c[n+](N2CCOCC2)no1', 'False'),
  ('CC(C)[N+](C)(CCOC(=O)C1c2ccccc2Oc2ccccc21)C(C)C', 'False'),
  ('CN1CCN(C2=Nc3ccccc3Oc3ccc(Cl)cc32)CC1', 'False'),
  ('c1cc(CN2CCCCC2)cc(OCCCNc2nc3ccccc3s2)c1', 'False'),
  ('Cc1ccc(=O)n(-c2ccccc2)c1', 'False'),
  ('O=C(O)CN(CCN(CC(=O)O)CC(=O)O)CCN(CC(=O)O)CC(=O)O', 'False'),
  ('CCN(CC)CCCN(c1ccccc1)C1Cc2ccccc2C1', 'True'),
  ('C[n+]1cc2c3c(ccc2c2ccc4cc5c(cc4c21)OCO5)OCO3', 'False'),
  ('CC(=O)Nc1nnc(S(N)(=O)=O)s1', 'False'),
  ('CCN(CC)CC(=O)Nc1c(C)cccc1C', 'False'),
  ('C#CCN(C)CCCOc1ccc(Cl)cc1Cl', 'False'),
  ('NC(=O)c1cn(Cc2c(F)cccc2F)nn1', 'False'),
  ('CN(C)C(=O)Oc1cccc([N+](C)(C)C)c1', 'False'),
  ('CCCN(CCC)CCc1cccc2c1CC(=O)N2', 'False'),
  ('CCn1ccnc1CC1COc2ccccc2O1 (stereo unspecified)', 'False'),
  ('NC(Cc1ccc(Cl)cc1)C(=O)O (stereo unspecified)', 'False'),
  ('NCCCNCCSP(=O)(O)O', 'False'),
  ('C[N+](C)(C)CCOC(=O)CCC(=O)OCC[N+](C)(C)C', 'False'),
  ('NC(=Nc1ccccc1)Nc1ccccc1', 'False'),
  ('O=C(CCNNC(=O)c1ccncc1)NCc1ccccc1', 'False'),
  ('CC(=O)[C@@]1(O)CC[C@H]2[C@@H]3CCC4=CC(=O)CC[C@]4(C)[C@H]3CC[C@@]21C', 'False'),
  ('CN(C)C(=O)Oc1ccc[n+](C)c1', 'False'),
  ('Cc1nnc(SCC2=C(C(=O)O)N3C(=O)[C@@H](NC(=O)Cn4cnnn4)[C@H]3SC2)s1', 'False'),
  ('Nc1nc(N)c2nc(-c3ccccc3)c(N)nc2n1', 'False'),
  ('COCCCC/C(=N\OCCN)c1ccc(C(F)(F)F)cc1', 'False'),
  ('COC(=O)[C@@H](N)Cc1ccc(O)c(O)c1', 'False'),
  ('CC(C(=O)O)c1ccc(CC2CCCC2=O)cc1 (stereo unspecified)', 'False'),
  ('CC(C)(C)c1ccc(C(=O)CCCN2CCC(OC(c3ccccc3)c3ccccc3)CC2)cc1', 'False'),
  ('NC1=NCC2c3ccccc3Cc3ccccc3N12 (stereo unspecified)', 'False'),
  ('CCCOc1ccccc1-c1nc2n[nH]nc2c(=O)[nH]1', 'False'),
  ('NC(=O)N1c2ccccc2C=Cc2ccccc21', 'False');
